Record form. Attribute: Rate constant with Cdk2 T182C. Fill in for each entry.
target: Cdk2(T182C) (C177A) (Homo sapiens, UniProt P24941, C177A/T182C); construct: poly-histidine; made in house; host or cells: E. coli; assay: Kinetic thiol consumption assay with Cdk2 mutant T182C; type: binding; settings: Protein: Cdk2; cysteine position T182C; additional mutation C177A; in h^-1
Give bare numbers.

C=CC(=O)Nc1ccccc1-c1ccccc1 [EL-1012] : 0.0172
C=CC(=O)N1CCCC(C(=O)OCC)C1 (stereo not drawn) [EL-1187] : 0.05839
C=CC(=O)Nc1ccc2c(c1)OC1(CCCC1)O2 [CA-054] : 0.004582

Take each entry in turn and give its Rate constant with Cdk2 T182C.
1. C=CC(=O)Nc1ccc(C(=O)NC2CCCC2)cc1 [EL-1114]
2. C=CC(=O)N1CCCC1c1cnc2ccccc2c1 (stereo not drawn) [EL-1064]
3. C=CC(=O)Nc1nc2ccccc2n1CCc1ccccn1 [CA-144]

Ans.
[0.4929, 0.02031, 0.09687]
